Label scheme for melting point: low (below 60 °C), intermediate (60 °C to below 200 °C), high (200 °C or more)

>  <molecule>
NC(=O)OCC(Cl)(Cl)Cl

>  <qualitative.label>
intermediate

$$$$
>  <molecule>
NCCNCCO

>  <qualitative.label>
low

$$$$
>  <molecule>
CCOP(=O)(OCC)On1nnc2ccccc2c1=O

>  <qualitative.label>
intermediate

$$$$
>  <molecule>
O=Cc1cccc(C(F)(F)F)c1O

>  <qualitative.label>
low

$$$$
>  <molecule>
COc1ccc(C(N)=O)cc1OC

>  <qualitative.label>
intermediate

$$$$
>  <molecule>
Cc1cc(N)cc(C)n1

>  <qualitative.label>
intermediate

$$$$
>  <molecule>
NNC(=O)c1ccc(N)c(N)c1

>  <qualitative.label>
intermediate

$$$$
>  <molecule>
Cc1cccc2c1CCCC2

>  <qualitative.label>
low

$$$$
>  <molecule>
NNc1cnn(-c2ccccc2)c(=O)c1Cl

>  <qualitative.label>
intermediate

$$$$
>  <molecule>
COc1ccc(CO)cc1O

>  <qualitative.label>
intermediate

$$$$
>  <molecule>
CC(N)C(O)c1cccc(O)c1 (stereo not drawn)

>  <qualitative.label>
intermediate

$$$$
>  <molecule>
Nc1c(F)cc(Br)cc1Br

>  <qualitative.label>
intermediate

$$$$
>  <molecule>
N[C@@H](Cc1ccc(OCc2ccccc2)cc1)C(=O)O

>  <qualitative.label>
high

$$$$
>  <molecule>
COC(=O)C(C(=O)OC)=C1SC2=C(C(=O)c3ccccc3C2=O)N1c1ccccc1

>  <qualitative.label>
high

$$$$
>  <molecule>
CC(C)(C)C(O)C(C)(C)C

>  <qualitative.label>
low

$$$$
>  <molecule>
CCN(CC)c1ccc(Cl)cc1

>  <qualitative.label>
low

$$$$
>  <molecule>
CC(O)CC(C)(C)O (stereo not drawn)

>  <qualitative.label>
low

$$$$
>  <molecule>
N#CC1=C(N)Oc2c(c(C(F)(F)F)nn2-c2ccccc2)C1c1c(Cl)cc(Cl)cc1Cl (stereo not drawn)

>  <qualitative.label>
high

$$$$
>  <molecule>
Nc1ncc(Cl)cn1

>  <qualitative.label>
high

$$$$
>  <molecule>
CCOC(=O)c1cn(C(C)=O)nc1N

>  <qualitative.label>
intermediate

$$$$
>  <molecule>
Cc1cc(C(C#N)c2ccc(Cl)cc2)c(Cl)cc1NC(=O)c1cc(I)cc(I)c1O (stereo not drawn)

>  <qualitative.label>
high

$$$$
>  <molecule>
Cc1ccc(CNC(=O)c2cc([N+](=O)[O-])cc([N+](=O)[O-])c2)c(C)c1

>  <qualitative.label>
intermediate

$$$$
>  <molecule>
O=C(O)C1CCC1C(=O)O (stereo not drawn)

>  <qualitative.label>
intermediate

$$$$
>  <molecule>
COC1=CC=C2C3Cc4ccc(OC)c5c4C2(CCN3C)C1O5 (stereo not drawn)

>  <qualitative.label>
intermediate

$$$$
>  <molecule>
FC(F)(F)c1cccc(C(F)(F)F)n1

>  <qualitative.label>
low

$$$$
>  <molecule>
COc1ccc(C(=O)NCc2cccnc2)cc1C(=O)NCc1cccnc1

>  <qualitative.label>
intermediate

$$$$
>  <molecule>
c1ccc2c(c1)Nc1ccccc1O2

>  <qualitative.label>
intermediate

$$$$
>  <molecule>
CC(C)NCC(O)c1ccc(NS(C)(=O)=O)cc1 (stereo not drawn)

>  <qualitative.label>
high

$$$$
>  <molecule>
NCCS(=O)(=O)O

>  <qualitative.label>
high

$$$$
>  <molecule>
CN(C)c1ccccc1[N+](=O)[O-]

>  <qualitative.label>
low

$$$$
>  <molecule>
C1OCC2(CO1)COCOC2

>  <qualitative.label>
low

$$$$
>  <molecule>
CCCN(CC)CC1COC2(CCC(C(C)(C)C)CC2)O1 (stereo not drawn)

>  <qualitative.label>
low

$$$$

###

Rule for this label: true means melting point is less than 100 °C; false means melting point is at least 100 °C.

>  <molecule>
CCOC(=O)C1=C(C)NC(C)=C(C(=O)OCC)C1

>  <qualitative.label>
false

$$$$
>  <molecule>
CCN(CC)c1nc2ccccc2c(=O)n1-c1ccccc1

>  <qualitative.label>
false

$$$$
>  <molecule>
C=COCCCC

>  <qualitative.label>
true

$$$$
>  <molecule>
Cc1c(F)cccc1[N+](=O)[O-]

>  <qualitative.label>
true

$$$$
>  <molecule>
Cc1cc(=O)n(-c2ccccc2)n1C

>  <qualitative.label>
false

$$$$
>  <molecule>
CC(C)(C)C(O)(CCc1ccc(Cl)cc1)Cn1cncn1 (configuration not stated)

>  <qualitative.label>
false

$$$$
>  <molecule>
C=CCC1(CC(C)O)C(=O)NC(=O)NC1=O (configuration not stated)

>  <qualitative.label>
false

$$$$
>  <molecule>
COc1cc([N+](=O)[O-])c(Cl)cc1NC(C)=O

>  <qualitative.label>
false

$$$$
>  <molecule>
CC1=CCC2CC1C2(C)C (racemic)

>  <qualitative.label>
true

$$$$

###

// melting point lookup, one value per entry

>  <compound>
COc1cc2c(cc1OC)C(C#N)C2 (stereo unspecified)

>  <output.unit>
°C

>  <melting point>
82

$$$$
>  <compound>
CCS(=O)(=O)O

>  <output.unit>
°C

>  <melting point>
-17

$$$$
>  <compound>
O=C(C1=NOC2C(=O)N(c3ccccc3)C(=O)C12)c1cccs1 (stereo unspecified)

>  <output.unit>
°C

>  <melting point>
174

$$$$
>  <compound>
C=CCN(CC=C)C(=O)COC(=O)c1ccccc1

>  <output.unit>
°C

>  <melting point>
42.5

$$$$
>  <compound>
COc1cc2c(c(O)c1OC)CNCC2

>  <output.unit>
°C

>  <melting point>
188

$$$$
>  <compound>
O=C(c1ccccc1O)N1CCOCC1

>  <output.unit>
°C

>  <melting point>
175

$$$$
>  <compound>
CC(=O)Nc1ccc(-c2ccc(N(Nc3ccccc3)C(C)=O)cc2)cc1

>  <output.unit>
°C

>  <melting point>
233

$$$$
>  <compound>
COc1ccc(Cl)c([N+](=O)[O-])c1

>  <output.unit>
°C

>  <melting point>
44

$$$$
>  <compound>
Cc1ccc(C(C)C(=O)O)cc1 (stereo unspecified)

>  <output.unit>
°C

>  <melting point>
41

$$$$
>  <compound>
O=C(CN1CCN(Cc2ccc3c(c2)OCO3)CC1)N1c2ccccc2Sc2ccccc21

>  <output.unit>
°C

>  <melting point>
142

$$$$
>  <compound>
Cc1cc(C)c([N+](=O)[O-])cc1C

>  <output.unit>
°C

>  <melting point>
71

$$$$
>  <compound>
O=C(O)COC(=O)Cc1ccccc1Nc1c(Cl)cccc1Cl

>  <output.unit>
°C

>  <melting point>
149

$$$$
>  <compound>
CC(=NNc1ccccc1)C(=O)c1cc(C(=O)C(C)=NNc2ccccc2)c([N+](=O)[O-])cc1[N+](=O)[O-]

>  <output.unit>
°C

>  <melting point>
234

$$$$
>  <compound>
CCC(C)C1(CC)C(=O)NC(=O)NC1=O (stereo unspecified)

>  <output.unit>
°C

>  <melting point>
167

$$$$

###

// melting point lookup, one value per entry
reported.endpoint: melting point (°C)

>  <compound>
C=C(C)C(=O)OCC

>  <reported.endpoint>
melting point

>  <output.unit>
°C

>  <numeric.result>
-60

$$$$
>  <compound>
Cc1cccc(C(=O)N(NC(=O)c2ccccc2)C(C)(C)C)c1C

>  <reported.endpoint>
melting point

>  <output.unit>
°C

>  <numeric.result>
204

$$$$
>  <compound>
CC(/N=N/c1cc(Cl)cc(Cl)c1O)=C(/C(=O)N1CCOCC1)N1CCOCC1

>  <reported.endpoint>
melting point

>  <output.unit>
°C

>  <numeric.result>
76.5

$$$$
>  <compound>
O=[N+]([O-])c1ccc(Cl)nc1Cl

>  <reported.endpoint>
melting point

>  <output.unit>
°C

>  <numeric.result>
64

$$$$
>  <compound>
CCCC(Cn1cncn1)c1ccc(Cl)cc1Cl (stereo not given)

>  <reported.endpoint>
melting point

>  <output.unit>
°C

>  <numeric.result>
60.3

$$$$
>  <compound>
O=C(c1ccccc1)c1cc(C(=O)c2ccccc2)c([N+](=O)[O-])cc1[N+](=O)[O-]

>  <reported.endpoint>
melting point

>  <output.unit>
°C

>  <numeric.result>
174

$$$$
>  <compound>
CCNC(C)Cc1cccc(C(F)(F)F)c1 (stereo not given)

>  <reported.endpoint>
melting point

>  <output.unit>
°C

>  <numeric.result>
110

$$$$
>  <compound>
Fc1c(F)c(F)c(P(c2ccccc2)c2ccccc2)c(F)c1F

>  <reported.endpoint>
melting point

>  <output.unit>
°C

>  <numeric.result>
71

$$$$
>  <compound>
CCP(=S)(CC)CC

>  <reported.endpoint>
melting point

>  <output.unit>
°C

>  <numeric.result>
95

$$$$
>  <compound>
COc1cccc(C(=O)O)c1OC

>  <reported.endpoint>
melting point

>  <output.unit>
°C

>  <numeric.result>
123

$$$$
>  <compound>
COc1ccc(F)cc1

>  <reported.endpoint>
melting point

>  <output.unit>
°C

>  <numeric.result>
-45

$$$$
>  <compound>
Cn1cnc2[nH]c(N)nc(=O)c21

>  <reported.endpoint>
melting point

>  <output.unit>
°C

>  <numeric.result>
370

$$$$
>  <compound>
CC(C(O)c1ccccc1)N(C)C (stereo not given)

>  <reported.endpoint>
melting point

>  <output.unit>
°C

>  <numeric.result>
87.5

$$$$
>  <compound>
Nc1c(F)cc(F)cc1Br

>  <reported.endpoint>
melting point

>  <output.unit>
°C

>  <numeric.result>
40

$$$$
>  <compound>
C=C1C(=O)C23C4CC5C(C)(C)CCC(OC(C)=O)C5(C(=O)O4)C2C(OC(C)=O)CC1C3OC(C)=O (stereo not given)

>  <reported.endpoint>
melting point

>  <output.unit>
°C

>  <numeric.result>
230

$$$$
>  <compound>
O=C(O)CCC(=O)c1ccc(C2CCCCC2)c(Cl)c1

>  <reported.endpoint>
melting point

>  <output.unit>
°C

>  <numeric.result>
163

$$$$
>  <compound>
O=C1c2ccccc2C(=O)c2cc(Br)ccc21

>  <reported.endpoint>
melting point

>  <output.unit>
°C

>  <numeric.result>
206

$$$$
>  <compound>
Fc1c(F)c(F)c(Sc2c(F)c(F)c(F)c(F)c2F)c(F)c1F

>  <reported.endpoint>
melting point

>  <output.unit>
°C

>  <numeric.result>
87

$$$$
>  <compound>
CCCCCCCCCCc1ccc(NC(=O)c2ccc(C)cc2)cc1

>  <reported.endpoint>
melting point

>  <output.unit>
°C

>  <numeric.result>
114

$$$$
>  <compound>
Cc1cn(C2CCC(CO)O2)c(=O)[nH]c1=O (stereo not given)

>  <reported.endpoint>
melting point

>  <output.unit>
°C

>  <numeric.result>
156

$$$$
>  <compound>
COC(=O)c1cc(O)c(O)c(O)c1

>  <reported.endpoint>
melting point

>  <output.unit>
°C

>  <numeric.result>
262

$$$$
>  <compound>
O=C1NN=C(C(F)(F)F)C1=NNc1ccc(Cl)cc1

>  <reported.endpoint>
melting point

>  <output.unit>
°C

>  <numeric.result>
215

$$$$
>  <compound>
CC(C)=CCC/C(C)=N/NC(N)=O

>  <reported.endpoint>
melting point

>  <output.unit>
°C

>  <numeric.result>
136

$$$$
>  <compound>
Cc1cc(S(=O)(=O)c2ccccc2)ccc1NS(=O)(=O)C(F)(F)F

>  <reported.endpoint>
melting point

>  <output.unit>
°C

>  <numeric.result>
143

$$$$
>  <compound>
C=C=O

>  <reported.endpoint>
melting point

>  <output.unit>
°C

>  <numeric.result>
-151

$$$$
>  <compound>
CCCCCCCC(=O)OC1CCC2(C)C(=CCC3C2CCC2(C)C(C(C)CCCC(C)C)CCC32)C1 (stereo not given)

>  <reported.endpoint>
melting point

>  <output.unit>
°C

>  <numeric.result>
110

$$$$
>  <compound>
COc1ccc2nnc(-c3ccc(C(F)(F)F)cc3)n2n1

>  <reported.endpoint>
melting point

>  <output.unit>
°C

>  <numeric.result>
142

$$$$
>  <compound>
CCOC(=O)c1cc2cc(F)ccc2[nH]1

>  <reported.endpoint>
melting point

>  <output.unit>
°C

>  <numeric.result>
150

$$$$
>  <compound>
c1ccc(Nc2nc(N3CCOCC3)nc(N3CCOCC3)n2)cc1

>  <reported.endpoint>
melting point

>  <output.unit>
°C

>  <numeric.result>
173

$$$$
>  <compound>
CCc1nnc(-c2ccccn2)nc1CC

>  <reported.endpoint>
melting point

>  <output.unit>
°C

>  <numeric.result>
70

$$$$
